Quick list: inhibition per entry.
- System Under Test: Serine/threonine-protein kinase PLK1 (Homo sapiens)
- Sequence (P53350 whole entry, the tested form may be a part): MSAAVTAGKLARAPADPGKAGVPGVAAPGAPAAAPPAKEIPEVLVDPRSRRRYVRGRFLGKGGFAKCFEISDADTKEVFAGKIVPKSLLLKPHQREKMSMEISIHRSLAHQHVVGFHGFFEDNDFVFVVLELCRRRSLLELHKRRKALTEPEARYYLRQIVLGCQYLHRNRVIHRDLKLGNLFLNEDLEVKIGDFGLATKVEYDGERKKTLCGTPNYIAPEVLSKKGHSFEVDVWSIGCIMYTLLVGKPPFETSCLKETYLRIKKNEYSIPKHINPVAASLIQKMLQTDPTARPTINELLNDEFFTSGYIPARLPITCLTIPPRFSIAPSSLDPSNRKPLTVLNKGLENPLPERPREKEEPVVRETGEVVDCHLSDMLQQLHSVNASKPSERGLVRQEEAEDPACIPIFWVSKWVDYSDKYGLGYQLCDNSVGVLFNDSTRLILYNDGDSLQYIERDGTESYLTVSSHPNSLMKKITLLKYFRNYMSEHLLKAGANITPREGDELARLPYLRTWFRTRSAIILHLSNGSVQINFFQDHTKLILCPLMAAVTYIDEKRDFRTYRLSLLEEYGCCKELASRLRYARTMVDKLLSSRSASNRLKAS
- Method: Inhibition of human PLK1 kinase domain at 10 uM using 5-TAMRA-RGSFNDTLDFD-NH2 substrate and ATP incubated for 90 mins by fluorescent polarization assay
Assay Endpoint: inhibition (%)

COc1ccccc1-c1ccnc(Nc2ccc(S(=O)(=O)Nc3onc(C)c3C)cc2)n1    56
CCOc1cc(Cl)ccc1-c1ccnc(Nc2ccc(S(=O)(=O)Nc3onc(C)c3C)cc2)n1    5
COc1ccc(-c2ccnc(Nc3ccc(S(=O)(=O)Nc4onc(C)c4C)cc3)n2)c(OC)c1    34
Cc1noc(NS(=O)(=O)c2ccc(Nc3nccc(-c4cccc(OC(C)C)c4F)n3)cc2)c1C    65
CCOc1cc(F)ccc1-c1ccnc(Nc2ccc(S(=O)(=O)Nc3onc(C)c3C)cc2)n1    11

====

- System Under Test: CDK7/Cyclin H/MNAT1 (Homo sapiens) (UniProt P51946+P50613+P51948)
- Method: Inhibition of N-terminal GST-HIS6 fusion protein tagged human CDK7 (M1 to F346 residues)/N-terminal HIS6-tagged human Cyclin-H (M1 to L323 residues)/N-terminal HIS6-tagged human MAT1 (M1 to S306 residues) expressed in Sf9 cells at 1 uM using RB-CTF substrate and ATP incubated for 1 hr by fluorescent polarization assay
Quick list: inhibition per entry.
Assay Endpoint: inhibition (%)

COc1ccc(F)c(F)c1-c1ccnc(Nc2ccc(S(=O)(=O)Nc3onc(C)c3C)cc2)n1    2
COc1cc(F)ccc1-c1ccnc(Nc2ccc(S(=O)(=O)Nc3onc(C)c3C)cc2)n1    3
COc1cccc(F)c1-c1ccnc(Nc2ccc(S(=O)(=O)Nc3nccs3)cc2)n1    0
COc1cccc(F)c1-c1ccnc(Nc2ccc(S(=O)(=O)Nc3nnc(C)s3)cc2)n1    2
COc1cc(F)ccc1-c1ccnc(Nc2ccc(S(=O)(=O)Nc3noc(C)c3C)cc2)n1    0
COc1ccc(F)c(F)c1-c1ccnc(Nc2ccc(S(=O)(=O)Nc3nnc(C)s3)cc2)n1    7
COc1ccccc1-c1ccnc(Nc2cccc(Cn3cnc4ccccc43)c2)n1    0
COc1cccc(F)c1-c1ccnc(Nc2ccc(S(=O)(=O)Nc3onc(C)c3C)cc2)n1    1
COc1cccc(F)c1-c1ccnc(Nc2cccc(Cn3cnc4ccccc43)c2)n1    0
CCOc1cccc(F)c1-c1ccnc(Nc2ccc(S(=O)(=O)Nc3onc(C)c3C)cc2)n1    0

====

- System Under Test: Serine/threonine-protein kinase PLK1 (Homo sapiens)
- Method: Inhibition of human PLK1 kinase domain using 5-TAMRA-RGSFNDTLDFD-NH2 substrate and ATP incubated for 90 mins by fluorescent polarization assay
pIC50: −log10 of the molar value.
Quick list: pIC50 per entry.
Assay Endpoint: pIC50

COc1cccc(F)c1-c1ccnc(Nc2ccc(S(=O)(=O)Nc3onc(C)c3C)cc2)n1    4.91
COc1ccc(F)c(F)c1-c1ccnc(Nc2ccc(S(=O)(=O)Nc3onc(C)c3C)cc2)n1    5.23

====

- System Under Test: CDK9/cyclin T1 (Homo sapiens, UniProt P50750)
- Sequence (O60563 whole entry, the tested form may be a part): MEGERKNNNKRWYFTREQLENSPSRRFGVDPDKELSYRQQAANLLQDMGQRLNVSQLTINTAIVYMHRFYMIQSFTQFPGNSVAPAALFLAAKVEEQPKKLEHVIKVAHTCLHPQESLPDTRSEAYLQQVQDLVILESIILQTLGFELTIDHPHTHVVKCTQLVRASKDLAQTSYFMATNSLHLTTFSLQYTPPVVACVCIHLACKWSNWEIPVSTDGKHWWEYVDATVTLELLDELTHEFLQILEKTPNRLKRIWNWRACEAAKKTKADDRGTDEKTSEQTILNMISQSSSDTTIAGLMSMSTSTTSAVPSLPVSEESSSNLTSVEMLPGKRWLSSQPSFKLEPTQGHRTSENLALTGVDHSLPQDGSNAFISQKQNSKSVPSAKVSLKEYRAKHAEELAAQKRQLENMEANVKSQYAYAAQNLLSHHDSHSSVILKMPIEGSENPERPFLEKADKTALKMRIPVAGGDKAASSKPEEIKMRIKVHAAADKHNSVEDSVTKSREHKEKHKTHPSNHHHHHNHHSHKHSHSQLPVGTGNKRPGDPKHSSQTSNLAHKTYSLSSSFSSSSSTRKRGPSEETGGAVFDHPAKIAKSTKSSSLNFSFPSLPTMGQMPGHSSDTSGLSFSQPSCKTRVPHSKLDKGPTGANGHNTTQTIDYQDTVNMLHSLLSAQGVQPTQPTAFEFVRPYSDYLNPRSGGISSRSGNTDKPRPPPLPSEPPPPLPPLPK
- Sequence (P50750 whole entry, the tested form may be a part): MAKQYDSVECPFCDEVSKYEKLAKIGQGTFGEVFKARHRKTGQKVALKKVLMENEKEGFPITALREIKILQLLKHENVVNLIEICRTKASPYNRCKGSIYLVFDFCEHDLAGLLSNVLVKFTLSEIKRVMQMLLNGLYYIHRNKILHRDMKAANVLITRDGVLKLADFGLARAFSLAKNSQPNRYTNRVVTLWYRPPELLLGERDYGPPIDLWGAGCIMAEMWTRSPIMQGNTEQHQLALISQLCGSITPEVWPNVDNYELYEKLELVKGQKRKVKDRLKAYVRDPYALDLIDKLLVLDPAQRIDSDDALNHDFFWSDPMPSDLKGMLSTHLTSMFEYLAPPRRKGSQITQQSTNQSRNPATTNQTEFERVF
- Method: Inhibition of N-terminal GST-HIS6 fusion protein tagged human full length CDK9 (M1 to F372 residues)/N-terminal GST-HIS6 fusion protein tagged human Cyclin-T1 (M1 to K726 residues) expressed in Sf9 cells at 10 uM using TAMRA-Rbtide substrate and ATP incubated for 1 hr by fluorescent polarization assay
Quick list: IC50 per entry.
Assay Endpoint: IC50 (nM)

COc1cc(F)ccc1-c1ccnc(Nc2ccc(C(=O)Nc3onc(C)c3C)cc2)n1    135
CCOc1cc(F)ccc1-c1ccnc(Nc2ccc(S(=O)(=O)Nc3onc(C)c3C)cc2)n1    8
COc1cc(F)ccc1-c1ccnc(Nc2ccc(S(=O)(=O)Nc3noc(C)c3C)cc2)n1    3
COc1cc(F)ccc1-c1ccnc(Nc2ccc(S(=O)(=O)Nc3nccs3)cc2)n1    122

All figures here come from ChEMBL document CHEMBL4184207.
